This collection of values is drawn from a melting point compilation (Tetko et al.; mined from patent text by program, amines drawn as free bases though some values may be those of a salt).

MEASURED ENDPOINT: melting point

MOLECULE: CCN(CC)C(=O)CCc1nc(-c2ccccn2)nc2ccccc12
MEASURED ENDPOINT: melting point
ENDPOINT VALUE: 130 °C

MOLECULE: O=C(O)c1cc(-c2ncnc(C(F)F)c2Cl)c(F)cc1Cl
MEASURED ENDPOINT: melting point
ENDPOINT VALUE: 217 to 219 °C

MOLECULE: Nc1nc(NCCN2CCC(NC3(Cc4ccc(F)cc4)Nc4ccccc4N3)CC2)ccc1[N+](=O)[O-]
MEASURED ENDPOINT: melting point
ENDPOINT VALUE: 206 °C

MOLECULE: OC(C1=NCCN1)(c1ccccn1)c1cccs1 (stereo unspecified)
MEASURED ENDPOINT: melting point
ENDPOINT VALUE: 151 to 152 °C

MOLECULE: CCOC(=O)CSc1nc2ccc(N)cc2s1
MEASURED ENDPOINT: melting point
ENDPOINT VALUE: 87 to 89 °C

MOLECULE: CS(=O)CCN1CCC2(CC1)CC(=O)c1cc(NS(C)(=O)=O)ccc1O2 (stereo unspecified)
MEASURED ENDPOINT: melting point
ENDPOINT VALUE: 181 to 183 °C

MOLECULE: CCOC(=O)Cc1c(C(=O)OCC)[nH]c2ccc(F)cc12
MEASURED ENDPOINT: melting point
ENDPOINT VALUE: 128 to 130 °C

MOLECULE: OCC1Cc2c(c(Cl)cc3c(-c4ccccc4Cl)noc23)O1 (stereo unspecified)
MEASURED ENDPOINT: melting point
ENDPOINT VALUE: 162 to 163 °C

MOLECULE: CCC1=C(O)C(=O)CC1
MEASURED ENDPOINT: melting point
ENDPOINT VALUE: 39 to 41 °C

MOLECULE: CC(=O)N[C@@H](CSC(=O)c1ccccc1)C(=O)NCCSC(=O)C(C)(C)C
MEASURED ENDPOINT: melting point
ENDPOINT VALUE: 133 to 134 °C

MOLECULE: O=C(Nc1cccc(F)c1)c1ccccc1O
MEASURED ENDPOINT: melting point
ENDPOINT VALUE: 157 to 159 °C

###

MEASURED ENDPOINT: melting point

MOLECULE: OCc1c(-c2ccccc2)nn2c1-c1ccccc1CC2
ENDPOINT VALUE: 185 to 187 °C

MOLECULE: C1=C[C@H]2CCN(CC3CC3)C[C@@H]2Cc2ccccc21 (relative stereo)
ENDPOINT VALUE: 157 to 159 °C

MOLECULE: CCO/N=C(/C(=O)OCC)c1ccc(OCCOc2ccc3ccccc3c2)s1
ENDPOINT VALUE: 102 to 104 °C

MOLECULE: OC(CCn1ccnc1)c1ccc2c(c1)Cc1ccccc1-2 (stereo unspecified)
ENDPOINT VALUE: 144 to 146 °C

MOLECULE: Cc1ccc(NC(=O)c2snnc2C2CC2)cc1Cl
ENDPOINT VALUE: 150 to 153 °C

MOLECULE: COCOc1ccc(Nc2ncccc2NS(=O)(=O)c2ccc(OC)cc2)cc1
ENDPOINT VALUE: 118 to 119 °C

###

Collected melting point values appear next to each entry.
MEASURED ENDPOINT: melting point

MOLECULE: Cc1c(C#N)sc2nc(Cc3ccccc3)nc(N3CCOCC3)c12
ENDPOINT VALUE: 88 to 90 °C
--
MOLECULE: CC=CCn1c(C)c(C)c2cnnc(SCc3ccc(Cl)cc3Cl)c21
ENDPOINT VALUE: 81 to 85 °C
--
MOLECULE: O=C(O)[C@H](Cc1cccc(OC(F)(F)C(F)F)c1)[C@@H](O)c1cccc(F)n1 (racemic)
ENDPOINT VALUE: 103 to 104 °C
--
MOLECULE: Nc1nc2c(s1)CCN(CC=Cc1cccc(C(F)(F)F)c1)CC2
ENDPOINT VALUE: 102 to 105 °C
--
MOLECULE: CCCCC(=O)c1c(-c2ccc3c(Br)c(OCC#N)ccc3c2)oc2ccccc12
ENDPOINT VALUE: 98 to 100 °C
